Assay Target: human small intestinal UPase enzyme (Homo sapiens (Human))
Sequence (Q16831 whole entry): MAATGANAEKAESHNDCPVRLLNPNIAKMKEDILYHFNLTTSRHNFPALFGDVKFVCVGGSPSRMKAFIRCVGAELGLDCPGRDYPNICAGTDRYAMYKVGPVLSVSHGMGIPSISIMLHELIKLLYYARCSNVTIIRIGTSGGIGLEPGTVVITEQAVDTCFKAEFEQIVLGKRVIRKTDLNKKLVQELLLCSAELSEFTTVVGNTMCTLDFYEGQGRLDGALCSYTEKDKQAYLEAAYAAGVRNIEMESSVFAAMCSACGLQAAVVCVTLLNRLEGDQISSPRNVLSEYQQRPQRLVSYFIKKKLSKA
Quantity: pIC50
Numbers only, as −log10 of the molar value.

Need pIC50 of Cc1cn2c(nc1=O)O[C@H]1[C@H](O)[C@@H](CO)O[C@H]12 [TK-112690, 2,2′-anhydro-5-methyluridine] , thanks.
4.70
